Values were extracted from ChEMBL document CHEMBL3792375.

# EXPERIMENTAL_PROTOCOL: Thermodynamic solubility in PBS buffer at 1 mg after 12 hrs by HPLC analysis
# Format: physicochemical
# EXPERIMENTAL_PARAMETERS: read-out: Therm_solubility
EXPERIMENTAL_READOUT: solubility thermodynamic at 12 h (µg/mL)
Lab book: enter the figure in µg/mL, no units written.

Use these answered entries as a reference point.
>>> result_number("COC1=CC(=O)C[C@@H](C)[C@]12Oc1c(Cl)c(OC)cc(OC)c1C2=O")
7.7
>>> result_number("COc1cc(OC)c2c(c1Cl)O[C@]1(C2=O)C(OCc2ccccc2)=CC(=O)C[C@H]1C")
0.3

Alright, here's another molecule for you.
response.value for `COc1cc(OC)c2c(c1Cl)O[C@]1(C2=O)C(OCc2ccccc2)=C/C(=N\O)C[C@H]1C` (field: solubility thermodynamic at 12 h) = 3
